Hello, the source for this data is PubChem BioAssay AID720567, in case you need it.

# ASSAY INFO: toxicity toward HEK293 cells – cell-based, dry powder samples, cytotoxicity control, dose response (AID 720567)
# RECORDED CONDITIONS: plate reader; series mostly up to 15 µM
Potency and affinity values are given separately. The source made the active and inactive calls. The rule behind the calls is not given here.
MEASUREMENT KIND: outcome

Solved entries (count: 4):
MOLECULAR STRING | MEAS VALUE
CC(=O)c1cccc(NC(=O)CSc2ncc(C(=O)Nc3ccccc3)c(=O)n2C)c1 | inactive
O=C1CCN(Cc2ccccc2)c2cc3ccccc3cc21 | inactive
COc1ccccc1OCC(=O)NNC(=O)c1ccoc1C | inactive
Cc1[nH][nH]c(=O)c1C(c1ccc(-c2ccc(Cl)c(Cl)c2)o1)c1c(C)[nH][nH]c1=O | inactive

I have 2 compounds here; please give me outcome for each one.
1. COc1ccc2c(COC(=O)c3cccc(S(=O)(=O)NCC(C)C)c3)cc(=O)oc2c1
2. Brc1ccc(CSc2nnc(-c3ccccc3)o2)cc1

Given back:
1. inactive
2. inactive
